- assay target: SHP2 protein (Homo sapiens)
- Sequence (Q06124 whole entry): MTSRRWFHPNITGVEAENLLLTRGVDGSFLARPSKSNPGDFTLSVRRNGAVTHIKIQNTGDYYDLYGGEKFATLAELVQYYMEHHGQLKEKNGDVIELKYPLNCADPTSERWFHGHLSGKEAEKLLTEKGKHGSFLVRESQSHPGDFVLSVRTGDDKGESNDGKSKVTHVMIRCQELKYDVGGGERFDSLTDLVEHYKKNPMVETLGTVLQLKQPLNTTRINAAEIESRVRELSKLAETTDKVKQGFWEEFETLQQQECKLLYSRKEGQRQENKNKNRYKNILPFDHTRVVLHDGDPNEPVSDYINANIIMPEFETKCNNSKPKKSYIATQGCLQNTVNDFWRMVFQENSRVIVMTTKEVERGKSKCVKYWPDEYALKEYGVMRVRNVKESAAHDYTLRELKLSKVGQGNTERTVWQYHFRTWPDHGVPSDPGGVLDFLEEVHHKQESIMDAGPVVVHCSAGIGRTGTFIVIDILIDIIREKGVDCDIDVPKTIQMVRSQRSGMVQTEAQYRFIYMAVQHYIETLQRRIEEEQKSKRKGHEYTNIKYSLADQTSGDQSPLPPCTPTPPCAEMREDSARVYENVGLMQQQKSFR
- procedure details: Degradation activity on SHP2 protein in MV-411 cells (Western blot, DC50)
- Assay type: cell-based
- Parameters: endogenous in cells
- conditions used: MV411 cells, 24 hours, read-out: Degradation activity for differenct cell lines MV411 (DC50)
- Method: […] (3) After 24 hours of cultivation, the cells were lysed using RIPA cell lysate, and the proteins were extracted. The protein concentration was measured using a BCA assay kit. […] (6) The images were analyzed with Image J grayscale, and the degradation ratio of protein bands in the test group was calculated, based on the negative control group (DMSO) (100%). […]
Please provide measured DC50 for the entries that follow.

As a guide, the following entries are already answered.
compound	result
C[C@@H]1OCC2(CCN(c3cnc(Sc4cccc(NC(=O)COCCCCCN5CC6(CCN(c7ccc(C(=O)NCc8ccc9c(c8)CN(C8CCC(=O)NC8=O)C9=O)nn7)C6)C5)c4)cn3)CC2)[C@@H]1N (stereo partly shown) [Compound 121]	< 0.1 µM
CC1(N)CCN(c2cnc(Sc3cccc(NC(=O)CCN4CC5(CCN(c6ncc(C(=O)NCc7ccc8c(c7)CN(C7CCC(=O)NC7=O)C8=O)cn6)C5)C4)c3)cn2)CC1 (stereo not shown) [Compound 65]	< 0.1 µM
COCC1(N)CCN(c2cnc(Sc3cccc(NC(=O)CCCCCCN4CC5(CCN(c6ccc(C(=O)NCc7ccc8c(c7)CN(C7CCC(=O)NC7=O)C8=O)nn6)C5)C4)c3)cn2)CC1 (stereo not shown) [Compound 199]	< 0.1 µM
NC1CCN(c2cnc(Sc3cccc(NC(=O)CCCCCCCCN4C5CCC4CN(c4ccc(C(=O)NCc6ccc7c(c6)CN(C6CCC(=O)NC6=O)C7=O)nn4)C5)c3)cn2)CC1F (stereo not shown) [Compound 143]	< 0.1 µM
CC1(N)CCN(c2cnc(Sc3cccc(NC(=O)CCCCCCN4CC5(CC=C(c6ccc(C(=O)NCc7ccc8c(c7)CN(C7CCC(=O)NC7=O)C8=O)nn6)CC5)C4)c3)cn2)CC1 (stereo not shown) [Compound 207]	< 0.1 µM
CC1(N)CCN(c2cnc(Sc3cccc(NC(=O)CCCCCCCOC4CCN(c5ccc(C(=O)NCc6ccc7c(c6)CN(C6CCC(=O)NC6=O)C7=O)nn5)CC4(F)F)c3)cn2)CC1 (stereo not shown) [Compound 153]	< 0.1 µM

I need DC50 for every entry listed below, if you could help.
1. CC1CN(c2ccc(C(=O)NCc3ccc4c(c3)CN(C3CCC(=O)NC3=O)C4=O)nn2)CC(C)N1CCCCCCCCC(=O)Nc1cccc(Sc2cnc(N3CCC(C)(N)CC3)cn2)c1 (stereo not shown) [Compound 138]
2. CC1(N)CCN(c2cnc(Sc3cccc(NC(=O)CCC(=O)N4CC5(CN(CCCCCCCC(=O)NCc6ccc7c(c6)CN(C6CCC(=O)NC6=O)C7=O)C5)C4)c3)cn2)CC1 (stereo not shown) [Compound 31]
3. CC1(N)CCN(c2cnc(Sc3cccc(NC(=O)[C@H]4CCC[C@@H]4C(=O)N4CCN(CCCCCCCCC(=O)Nc5ccc6c(c5)C(=O)N(C5CCC(=O)NC5=O)C6)CC4)c3)cn2)CC1 (stereo partly shown) [Compound 24]
4. Cc1ncsc1-c1ccc([C@H](C)NC(=O)[C@@H]2C[C@@H](O)CN2C(=O)[C@@H](NC(=O)CCCCCCCCCCCC(=O)Nc2cccc(Sc3cnc(N4CCC(C)(N)CC4)cn3)c2)C(C)(C)C)cc1 [Compound 58]

< 0.1 µM
> 1 µM
> 1 µM
0.1 to 1 µM
